- Assay method text: Disposition after single oral dose, rat
- Type: in vivo
- Experimental setup: blood; male rat, 10 mg/kg single oral, 14C-labeled, fasting
Result type: half-life (h)

INSERT INTO results (molecule, number) VALUES
  ('CCCCCCCCCCCCCCCCCCCCCCCC(=O)NC(COC1OC(CO)C(O)C(O)C1O)[C@H](O)C(O)CCCCC (stereo in doubt)', 26);

====

- Assay method text: Disposition after single oral dose, mouse
- Format: in vivo
- Experimental setup: plasma; male mouse, 5 mg/kg single oral, 14C-labeled, fasting
Result type: Tmax

INSERT INTO results (compound, result_type, result) VALUES
  ('CCCCCCCCCCCCCCCCCCCCCCCC(=O)NC(COC1OC(CO)C(O)C(O)C1O)[C@H](O)C(O)CCCCC (stereo in doubt)', 'Tmax', '8 h');
